Recorded values, source patent US20230272056A1.

The binders listed here are annotated with their koff.
target: T1, human LAP-TGFB1 Fc fusion (human); experiment: BLI off-rate screen
T1 construct: also called human LAP-TGFβ1-Fc; human LAP-TGFβ-Fc isoform 1
T1 sequence (chain, as listed by the source limits assumed): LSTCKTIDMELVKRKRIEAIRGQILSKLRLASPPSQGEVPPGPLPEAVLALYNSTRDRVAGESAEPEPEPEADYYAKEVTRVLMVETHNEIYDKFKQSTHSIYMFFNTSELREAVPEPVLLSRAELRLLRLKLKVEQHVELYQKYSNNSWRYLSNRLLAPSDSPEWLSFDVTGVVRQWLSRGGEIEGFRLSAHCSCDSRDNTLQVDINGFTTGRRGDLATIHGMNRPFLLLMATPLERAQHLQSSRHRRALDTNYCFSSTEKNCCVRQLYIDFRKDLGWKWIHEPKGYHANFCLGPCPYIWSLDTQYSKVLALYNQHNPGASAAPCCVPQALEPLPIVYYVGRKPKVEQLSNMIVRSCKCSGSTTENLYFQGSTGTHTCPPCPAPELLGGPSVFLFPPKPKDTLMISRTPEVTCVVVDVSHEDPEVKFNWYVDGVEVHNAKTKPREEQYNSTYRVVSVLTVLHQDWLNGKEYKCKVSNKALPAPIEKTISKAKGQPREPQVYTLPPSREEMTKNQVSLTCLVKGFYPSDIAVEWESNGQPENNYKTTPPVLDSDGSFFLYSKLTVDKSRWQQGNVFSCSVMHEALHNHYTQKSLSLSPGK
experimental-readout: koff (s⁻¹)

binder="VL Q27Y (41BIT) (Fab, V domains shown) VH: EVQLVQSGAEVKKPGASVKVSCKASGYTFTSYWMHWVRQAPGQGLEWMGRIDPQSGGIKYAQKFQGRATLTVDTSTSTAYMELSRLRSDDTAVYYCARWDYGGYFDVWGQGTLVTVSS VL: DIQMTQSPSSLSASVGDRVTITCRASYDITNYLNWYQQKPGKAVKLLIYYTSRLHSGVPSRFSGSGSGTDYTLTISSLQPEDFATYFCQQGDTLPWTFGQGTKLEIKR" reported_value=0.0229
binder="VL H55Y (52BIT) (Fab, V domains shown) VH: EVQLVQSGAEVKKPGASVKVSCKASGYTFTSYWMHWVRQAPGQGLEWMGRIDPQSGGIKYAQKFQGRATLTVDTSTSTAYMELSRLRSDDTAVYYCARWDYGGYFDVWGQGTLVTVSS VL: DIQMTQSPSSLSASVGDRVTITCRASQDITNYLNWYQQKPGKAVKLLIYYTSRLYSGVPSRFSGSGSGTDYTLTISSLQPEDFATYFCQQGDTLPWTFGQGTKLEIKR" reported_value=0.0385
